Each entry below lists one item and its recorded viability value.
assay: viability of PTEN-null HCT116 cells – cell-based, HCT116 clonal line, CellTiter-Glo, pilot screen (AID 824); details: HCT116 PTEN-deleted viability, 60 h, at 10 µM, active compounds read low;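 note: 0% = 20 µM Hyamine control and 100% = vehicle cell control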
Results filed as inconclusive are left out.
Measurement kind: viability (%)

| Compound | Readout units | Test result |
| --- | --- | --- |
| CCN(CCNC(=O)C1CCN(S(=O)(=O)c2cccc3cccnc23)CC1)c1ccccc1 | % | 82.9 |
| CCCCCOC(=O)CSc1nc2c(c(=O)[nH]c(=O)n2C)n1Cc1ccc(Cl)cc1 | % | 84.7 |
| CC1CCN(Cc2nc3c(c(=O)n(C)c(=O)n3C)n2Cc2cccc3ccccc23)CC1 | % | 88.2 |
| CCC1CCCCN1C(=O)CSc1nnc(-c2ccc(OC)cc2)o1 (configuration not stated) | % | 95.7 |
| O=C(O)CC(CNS(=O)(=O)c1ccccc1)c1ccccc1 (configuration not stated) | % | 98.6 |
| Cc1cc(C)c2c(=O)n(CC(=O)NCCCN3CCN(c4ccccc4F)CC3)sc2n1 | % | 1.7 |
| C=C(Cl)COc1ccc2c(C)cc(=O)oc2c1 | % | 84 |
| O=C1c2ccccc2C(=O)N1C/C=C/CN1C(=O)c2ccccc2C1=O | % | 102 |
| O=C1CCC/C1=c1\s/c(=C\c2cccnc2)c(=O)n1-c1ccccc1 | % | 89.6 |
| CCCCn1c(=NC(=O)c2cccnc2)c(C(=O)OCC)cc2c(=O)n3ccccc3nc21 | % | 88.1 |
| Cc1ccc(Cn2ccc(NC(=O)c3cc(C(C)C)on3)n2)cc1 | % | 95.1 |
| CCn1c(C(=O)NC(C)c2ccc3c(c2)OCCO3)cc2sccc21 (configuration not stated) | % | 82 |
| CCCCN(CCCC)CCn1cnc2c([nH]c3ccc(OC)cc32)c1=O | % | 86.2 |
| CSc1cccc(NC(=O)C2CCN(S(=O)(=O)c3ccc(F)cc3)CC2)c1 | % | 62 |
| O=S(=O)(c1ccc(OCc2nc3ccccc3s2)c(Cl)c1)N1CCOCC1 | % | 88.6 |
| CCn1c2ccccc2c2cc(Nc3cc(C)nc4ncnn34)ccc21 | % | 12.2 |
| O=C(CSc1nc2c(c(=O)n1-c1ccc(F)cc1)SCC2)NCc1ccco1 | % | 103 |
| COc1ccccc1NC(=O)N1CCN(c2ccc3nncn3n2)CC1 | % | 103 |
| COC(=O)C1=C(C)NC2=C(C(=O)CCC2)C1c1coc2ccccc2c1=O (configuration not stated) | % | 90.1 |
| Cc1ccccc1-c1nc(CN2CCC(C(=O)NC3CCN(Cc4ccccc4)CC3)CC2)c(C)o1 | % | 9.9 |
| Cc1ccc(-c2nc(-c3ccccc3)no2)c(Cl)c1 | % | 78 |
| Cc1cccc(N(CC(=O)N2CCCC2)S(=O)(=O)c2ccccc2)c1C | % | 93.6 |

====

test: S. cerevisiae growth inhibition in permissive medium (OD615), pilot counter-assay for S. cerevisiae lifespan shortening project, permissive growth control (AID 705); conditions: OD615, 24 h, at 10 µM, active compounds read high

| Compound | Readout units | growth inhibition |
| --- | --- | --- |
| Cc1cccc(CN2CCC(CNC(=O)C3CCCN(S(=O)(=O)c4cnc[nH]4)C3)CC2)c1 (stereo unspecified) | % | -0.3 |
| COc1cc(OC)c2c(c1)OC(c1ccc(OC)c(OC)c1)C(O)C2=O (stereo unspecified) | % | -13.6 |
| CCc1cccc(NC(=O)CCS(=O)(=O)c2cccc3nonc23)c1 | % | 0.64 |
| CCc1ccc(C(=O)NC2CCCCC2)s1 | % | -14.4 |
| Cc1ccnc(NC(=O)C2CCCN(S(=O)(=O)c3cnc[nH]3)C2)c1 (stereo unspecified) | % | 1.41 |
| COC1CCCCC1Nc1cccc(SC)c1 (stereo unspecified) | % | -1.82 |
